# key: entry, value: Gastric stability
- PROTOCOL DESCRIPTION: Gastric stability of anthocyanins in extracts, standardized in vitro digestion (simulated gastric fluid, pepsin, pH 3.0)
- Type: in vitro ADME
- ASSAY SETUP: co-digestion of black carrot and strawberry extracts, % of undigested

- COMPOUND: "O=C(O)CC(=O)OC[C@H]1O[C@@H](Oc2cc3c(O)cc(O)cc3[o+]c2-c2ccc(O)cc2)[C@H](O)[C@@H](O)[C@@H]1O [Pelargonidin-3-malonyl-glucoside]"
  OUTPUT UNIT: "%"
  Gastric stability: 92
- COMPOUND: "COc1cc(/C=C/C(=O)OC[C@H]2O[C@@H](OC[C@H]3O[C@@H](Oc4cc5c(O)cc(O)cc5[o+]c4-c4ccc(O)c(O)c4)[C@H](O[C@@H]4OC[C@@H](O)[C@H](O)[C@H]4O)[C@@H](O)[C@H]3O)[C@H](O)[C@@H](O)[C@@H]2O)ccc1O"
  OUTPUT UNIT: "%"
  Gastric stability: 86
- COMPOUND: "OC[C@H]1O[C@@H](Oc2cc3c(O)cc(O)cc3[o+]c2-c2ccc(O)c(O)c2)[C@H](O[C@@H]2OC[C@@H](O)[C@H](O)[C@H]2O)[C@@H](O)[C@H]1O [Cyanidin-3-xylosyl-galactoside]"
  OUTPUT UNIT: "%"
  Gastric stability: 83
- COMPOUND: "OC[C@H]1O[C@@H](OC[C@H]2O[C@@H](Oc3cc4c(O)cc(O)cc4[o+]c3-c3ccc(O)c(O)c3)[C@H](O[C@@H]3OC[C@@H](O)[C@H](O)[C@H]3O)[C@@H](O)[C@H]2O)[C@H](O)[C@@H](O)[C@@H]1O [Cyanidin-3-xylosyl-glucosyl-galactoside]"
  OUTPUT UNIT: "%"
  Gastric stability: 56
- COMPOUND: "O=C(/C=C/c1ccc(O)cc1)OC[C@H]1O[C@@H](OC[C@H]2O[C@@H](Oc3cc4c(O)cc(O)cc4[o+]c3-c3ccc(O)c(O)c3)[C@H](O[C@@H]3OC[C@@H](O)[C@H](O)[C@H]3O)[C@@H](O)[C@H]2O)[C@H](O)[C@@H](O)[C@@H]1O"
  OUTPUT UNIT: "%"
  Gastric stability: 66
- COMPOUND: "OC[C@H]1O[C@@H](Oc2cc3c(O)cc(O)cc3[o+]c2-c2ccc(O)cc2)[C@H](O)[C@@H](O)[C@@H]1O [Pelargonidin-3-glucoside]"
  OUTPUT UNIT: "%"
  Gastric stability: 76

Values from paper PMC7692923
